# assayedTarget: CAMKK1 (human)
# assayProtocol: KINOMEscan competition binding
# particulars: compound 10.0 µM
Below: a set of entries, each annotated with reported kinase still bound, per cent of control.
Respond numerically; units are % and should not be typed.

Before answering, review these 4 worked examples.
CN(C)C/C=C/C(=O)Nc1ccc(C(=O)Nc2cccc(Nc3nccc(-c4cccnc4)n3)c2)cc1 = 52
O=C(Nc1cccc(Nc2ncc(Br)c(NCCc3cnc[nH]3)n2)c1)N1CCCC1 = 8.8
CNC(=O)c1cc(Oc2ccc(NC(=O)Nc3ccc(Cl)c(C(F)(F)F)c3)cc2)ccn1 = 89
CCN(CC)CCCCNc1ncc2cc(-c3cc(OC)cc(OC)c3)c(NC(=O)NC(C)(C)C)nc2n1 = 100

Param readout= kinase still bound, per cent of control; system= CAMKK1 (human); entry= "CS(=O)(=O)N1CCN(Cc2cc3nc(-c4cccc5[nH]ncc45)nc(N4CCOCC4)c3s2)CC1" ; returns value.
100

Please answer likewise for "O=c1cc(N2CCOCC2)oc2c(-c3cccc4c3sc3ccccc34)cccc12"
85

Okay, and "C=CC(=O)Nc1ccc(CN(C(=O)Nc2c(Cl)c(OC)cc(OC)c2Cl)c2cc(Nc3ccc(N4CCN(C)CC4)cc3)ncn2)cc1" ?
100

Further, for "COc1ccc(N(C(=O)Oc2c(C)cccc2C)c2ccnc(Nc3ccc(N4CCN(C)CC4)cc3)n2)c(OC)c1" ?
88

Likewise for "N#CCNC(=O)c1ccc(-c2ccnc(Nc3ccc(N4CCOCC4)cc3)n2)cc1" ?
27

Then this molecule: "CCN1CCN(C(=O)Cc2ccc(Nc3ncc(F)c(Nc4ccc(C(=O)Nc5ccccc5Cl)cc4)n3)cc2)CC1"
25

Next: "Cc1n[nH]c2ccc(-c3cncc(OC[C@@H](N)Cc4c[nH]c5ccccc45)c3)cc12"
2.4

Please answer likewise for "C[C@@H](Oc1cc(-c2cnn(C3CCNCC3)c2)cnc1N)c1c(Cl)ccc(F)c1Cl"
60

Item: "C=CC(=O)Nc1cc(-n2c(=O)ccc3cnc4ccc(-c5cn[nH]c5)cc4c32)ccc1C"
59

# repeat for "COCC(=O)NC/C=C/c1ccc2ncnc(Nc3ccc(Oc4ccc(C)nc4)c(C)c3)c2c1"
96
